Record form. Attribute: pIC50. Fill in for each entry.
Molecular target: human CCR6 (Homo sapiens)
Construct: expressed in transfected cells; host or cells: HEK-293
Sequence (P51684 whole entry): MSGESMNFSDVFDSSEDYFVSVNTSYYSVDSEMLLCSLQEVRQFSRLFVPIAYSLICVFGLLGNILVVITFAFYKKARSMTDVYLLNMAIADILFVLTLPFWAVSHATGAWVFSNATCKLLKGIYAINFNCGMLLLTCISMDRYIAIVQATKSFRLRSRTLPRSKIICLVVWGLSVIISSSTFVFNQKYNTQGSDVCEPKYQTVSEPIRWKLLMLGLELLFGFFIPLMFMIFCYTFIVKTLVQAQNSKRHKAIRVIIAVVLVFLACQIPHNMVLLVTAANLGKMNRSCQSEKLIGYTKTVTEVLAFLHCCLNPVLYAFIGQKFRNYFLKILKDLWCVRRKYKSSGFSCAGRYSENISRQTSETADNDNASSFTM
Assay: FLIPR assay (inhibition of CCL20-induced calcium signal)
Format: cell-based
Settings: HEK-293 cells expressing human CCR6; mean values where determined several times; read-out: FLIPR IC50
Value format note: pIC50 is -log10 of concentration (mol/L); just state the number.

Challenge: // map COCC(=O)NC(C)(C)Cc1nc(-c2cncc([C@@](O)(c3ccc(C(C)C)cc3)C3(C)CN(C)C3)c2)no1 [Example 465] to recorded pIC50 (system: human CCR6 (Homo sapiens))
Response given: 7.06

Challenge: Kindly state the measured pIC50 obtained for CCC(CC)c1ccc(C(O)(c2cncc(-c3noc(C(C)(C)O)n3)c2)C2(C)CN(C)C2)cc1 (stereo not shown) [Example 562] with human CCR6 (Homo sapiens).
Response given: 7.35

Challenge: Form field - read-out: pIC50; system: human CCR6 (Homo sapiens); submitted item: [2H]C([2H])([2H])C(=O)N(C)CCc1nc(-c2cncc([C@@](O)(c3ccc(C(C)C)cc3)C3(C)CN(C)C3)c2)no1 [Example 145]
Response given: 6.56

Challenge: Return pIC50 measured with human CCR6 (Homo sapiens) given this molecule: CC(C)c1ccc([C@](O)(c2cncc(-c3noc(CC(C)(C)NC(=O)C4CCOCC4)n3)c2)C2(C)CN(C)C2)cc1 [Example 466]
Response given: 6.84

---

Target: human CCR6 (Homo sapiens)
Construct: expressed in transfected cells; host or cells: HEK-293
Assay: FLIPR assay (inhibition of CCL20-induced calcium signal)
Assay type: cell-based
Settings: HEK-293 cells expressing human CCR6; mean values where determined several times; read-out: FLIPR IC50
Please respond with reported pIC50 for every item in the list.
Keep in mind that pIC50 stands for -log10 of concentration in molar terms.

Challenge: So what's the measured pIC50 for this one? CCCS(=O)(=O)N1CCC(c2nc(-c3cncc([C@@](O)(c4ccc(C(C)C)cc4)C4(C)CN(C)C4)c3)no2)CC1
Response given: 7.27

Challenge: # input compound: CN1CC(C)([C@](O)(c2ccc(C3CC3)cc2)c2cncc(-c3nc(C4CCOCC4)no3)c2)C1 ; wanted: its pIC50
Response given: 6.73

Challenge: Reported pIC50, compound Cc1cc([C@@](C)(O)C#Cc2cncc([C@@](O)(c3ccc(C(C)C)cc3)C3(C)CN(C)C3)c2)ncn1 : ____
Response given: 6.97

Challenge: Reported pIC50, compound CC(C)CN1CC(C)([C@](O)(c2ccc(OC(F)(F)F)cc2)c2cncc(N3CCCC3)c2)C1 : ____
Response given: 6.96

Challenge: // query pIC50 value for entry CN1CC(C)([C@](O)(c2ccc(C3(C)CC3)cc2)c2cncc(N3CCCC3)c2)C1
Response given: 7.78

Challenge: Entry CN1CC(C)([C@](O)(c2ccc(C3CC3)cc2)c2cncc(-c3noc(C(C)(C)O)n3)c2)C1 : reported pIC50 = ?
Response given: 7.01

Challenge: Field request: pIC50 | item: CC(C)c1ccc([C@](O)(c2cnnc(N3CC(C(F)(F)F)CC3=O)c2)C2(C)CN(C)C2)cc1 (some centres unmarked)
Response given: 7.02

Challenge: Name the reported pIC50 value associated with the compound CCC(O)(C#Cc1cncc([C@@](O)(c2ccc(C(C)C)cc2)C2(C)CN(C)C2)c1)c1cccc(OC)n1 (some centres unmarked)
Response given: 7.48

Challenge: Which pIC50 reading was recorded for the compound CC(C)c1ccc([C@](O)(c2cncc(C#CC(C)(O)c3ccn(C)n3)c2)C2(C)CN(C)C2)cc1 (some centres unmarked) [Example 35] ?
Response given: 6.85

Challenge: GET /values?readout=pIC50&item= CCN1CC(C)([C@](O)(c2ccc(C(C)C)cc2)c2cncc(-c3noc(CC(C)(C)O)n3)c2)C1
Response given: 7.03

Challenge: Reported pIC50, compound CN1CC(C)(C(O)(c2ccc(CC(C)(C)C)cc2)c2cncc(-c3noc(C(C)(C)O)n3)c2)C1 (centres unmarked) : ____
Response given: 7.04

Challenge: Please report the recorded pIC50 for CC(C)c1ccc([C@](O)(c2cncc(C#CC3(O)CCC3)c2)C2(C)CN(C)C2)cc1 .
Response given: 7.32

Challenge: Name the recorded pIC50 for CC(=O)N1CCC(C)(C(O)C#Cc2cncc([C@@](O)(c3ccc(C(C)C)cc3)C3(C)CN(C)C3)c2)CC1 (some centres unmarked) .
Response given: 7.12

Challenge: Quick one: pIC50 of CC(C)c1ccc([C@](O)(c2cncc(-c3noc([C@H]4C[C@@H](C)O[C@@H](C)C4)n3)c2)C2(C)CN(C)C2)cc1 ?
Response given: 7.33

Challenge: For the compound shown here, CCC(C)(C)c1ccc([C@](O)(c2cncc(-c3noc(C(C)(C)O)n3)c2)C2(C)CN(C)C2)cc1 , give the reported pIC50.
Response given: 6.87

Challenge: Fill in: pIC50 of CC(C)(C)N1CC(C)([C@](O)(c2ccc(OC(F)(F)F)cc2)c2cncc(N3CCCC3)c2)C1 is ___
Response given: 7.13

Challenge: So what's the measured pIC50 for this one? CC(C)c1ccc([C@](O)(c2cncc(N3CC4(CC4)OC3=O)c2)C2(C)CN(C)C2)cc1
Response given: 6.97

Challenge: What value of pIC50 has been reported for the following compound? Cc1cccc(C(C)(O)C#Cc2cncc([C@@](O)(c3ccc(C(C)C)cc3)C3(C)CN(CCO)C3)c2)n1 (some centres unmarked)
Response given: 7.28

Challenge: pIC50 for CC(=O)N1CCc2nc(-c3cncc([C@@](O)(c4ccc(C(C)C)cc4)C4(C)CN(C)C4)c3)ccc2C1 ?
Response given: 6.90

Challenge: Which pIC50 value is on record for CCCc1ccc([C@](O)(c2cncc(-c3nc(COC4CCC4)no3)c2)C2(C)CN(C)C2)cc1 ?
Response given: 7.21

Challenge: Form field: reported pIC50 of CC(C)c1ccc([C@](O)(c2cncc(N3CC4(CC(C5CC5)C4)OC3=O)c2)C2(C)CN(C)C2)cc1 (some centres unmarked)
Response given: 7.19

Challenge: So what's the measured pIC50 for this one? CC(C)c1ccc([C@](O)(c2cncc(OCCC(C)(C)O)c2)C2(C)CN(C)C2)cc1
Response given: 7.24

Challenge: Given CC(C)c1ccc([C@](O)(c2cncc(C#CC3(O)CCOc4cccnc43)c2)C2(C)CN(C)C2)cc1 (some centres unmarked) , state its recorded pIC50.
Response given: 7.13

Challenge: What measured pIC50 goes with CC(C)c1ccc([C@](O)(c2cncc(-c3nc(C4CCN(C(=O)OCc5ccccc5)CC4)no3)c2)C2(C)CN(C)C2)cc1 ?
Response given: 7.18

Challenge: Please give the measured pIC50 for this compound: CC(=O)N1CC[C@@H](Cc2nc(-c3cncc([C@@](O)(c4ccc(C(C)C)cc4)C4(C)CN(C)C4)c3)no2)C1
Response given: 6.85

Challenge: // pIC50 lookup, key: COc1cc(C(C)(O)C#Cc2cncc([C@@](O)(c3ccc(C(C)C)cc3)C3(C)CN(C)C3)c2)ncn1 (single isomer, unassigned) [Example 620]
Response given: 7.26

Challenge: Fill in: pIC50 of CC(C)c1ccc([C@](O)(c2cnnc(O[C@H]3CCOC3)c2)C2(C)CN(C)C2)cc1 is ___
Response given: 6.68

Challenge: What measured pIC50 goes with CC(C)c1ccc([C@](O)(c2cnnc(N3CCC(C)(C)C3=O)c2)C2(C)CN(C)C2)cc1 ?
Response given: 6.83

Challenge: What measured pIC50 goes with Cc1nc(C(C)(O)CCc2cncc([C@@](O)(c3ccc(C(C)C)cc3)C3(C)CN(C)C3)c2)cs1 (some centres unmarked) ?
Response given: 6.83
